Target: AKT1 (Homo sapiens, UniProt P31749)
Sequence (P31749 150-408 limits assumed): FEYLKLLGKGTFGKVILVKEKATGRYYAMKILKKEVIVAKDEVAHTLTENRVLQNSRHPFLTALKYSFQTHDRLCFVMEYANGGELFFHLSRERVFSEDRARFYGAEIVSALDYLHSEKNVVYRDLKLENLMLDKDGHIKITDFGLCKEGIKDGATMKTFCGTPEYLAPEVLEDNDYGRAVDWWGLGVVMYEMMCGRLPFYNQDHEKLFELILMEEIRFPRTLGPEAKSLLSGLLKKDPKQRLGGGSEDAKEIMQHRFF
Test: AKT1 enzymatic inhibition assay (HTRF KinEASE)
Type: biochemical
Conditions: read-out: AKT1 pIC50 (converted)
test readout: IC50 (nM)
# output: bare number, implied unit nM

CN(C)CCNC(c1ccc(Cl)cc1)C1CCN(c2ncnc3[nH]nc(C(F)(F)F)c23)CC1 (single isomer, unassigned; (-)) [Example 12b]: 3.39
CN(C)CC(c1ccc(Cl)cc1)C1CCN(c2ncnc3[nH]nc(Br)c23)CC1 (stereo not shown) [Example 7]: 0.912
CN(C)CCCC(=C1CCN(c2ncnc3[nH]nc(C(F)(F)F)c23)CC1)c1ccc(Cl)cc1 [Example 15]: 933
CN(C)CCNC(c1ccc(Cl)cc1)C1CCN(c2ncnc3[nH]nc(C(F)(F)F)c23)CC1 (single isomer, unassigned; (+)) [Example 12a]: 0.575
CN(C)CC(c1ccc(Cl)cc1)N1CCN(c2ncnc3[nH]nc(Br)c23)CC1 (stereo not shown) [Example 1]: 0.324

Consider Cc1n[nH]c2ncnc(N3CCC(C(OCCN(C)C)c4ccc(Cl)cc4)CC3)c12 (stereo not shown) [Example 5] . Its measured IC50 is 12.6

Consider CN(C)CCOC(c1ccc(Cl)cc1)C1CCN(c2ncnc3[nH]nc(Br)c23)CC1 (stereo not shown) [Example 2] . Its measured IC50 is 5.75

Each recorded value in this set is attributed to patent US20230064189A1.
